Catalogue of growth readings, one per entry.
tested on: HCC-2998 colon; experiment: NCI-60 one-dose screen, 48 h (100 = growth as untreated, 0 = no growth, -100 = all killed); conditions: 10 µM unless noted
This is part of a sample that, as a whole, favours compounds with a hit. Of some 83,000 tested, about 20% had one in any assay.
Number in %, nothing else.

Consider the following illustrative entries.
CCNC(=O)c1[nH]cc(-c2ccccc2)c1-c1cc(OC)c2c(c1OC)OCO2    104
Fc1ccc2[nH]cc(-c3nonc3-c3c[nH]c4ccc(Br)cc34)c2c1    2.9

Input: Look at this compound and give its reported growth. "Fc1cccc(CNc2c3ccccc3nc3ccccc23)c1F"
Output: 58.4

Input: Look at this compound and give its reported growth. C=C1CC[C@@H]2[C@](C)(COC(C)=O)[C@H](OC(C)=O)CC[C@@]2(C)[C@@H]1CC(Sc1ccccc1)C1=CCOC1=O (stereo not given in full)
Output: 44.7

Input: Look at this compound and give its reported growth. "CCN(CC)c1ccc(/C=C/C(=O)c2ccc(Nc3nc(Nc4ccccc4)nc(Nc4ccccc4)n3)cc2)cc1"
Output: 66.5

Input: Look at this compound and give its reported growth. "Cc1ccc(-c2nc(N3CCNCC3)c3oc(-c4ccccc4)nc3n2)cc1"
Output: -61.1

Input: Look at this compound and give its reported growth. "COc1ccc2nc(NC(=O)CSc3nnc4n3S(=O)(=O)c3ccccc3N4C)sc2c1"
Output: 108

Input: Look at this compound and give its reported growth. "Cc1ccc(/C=N/Nc2nc(Nc3ccccc3)nc(-n3nc(C)cc3C)n2)cc1"
Output: 43.1

Input: Look at this compound and give its reported growth. COc1ccc(/C=C2\C(=O)N=C3N2NC(c2cc(Br)ccc2O)C=C(C)N3c2ccccc2)cc1 (stereo not given)
Output: 87.1

Input: Look at this compound and give its reported growth. "CC(C)CCNC(=O)Cn1cccc(NC(=O)OCc2ccccc2)c1=O"
Output: 103

====

test system: MDA-MB-231 breast; test: NCI-60 one-dose screen, 48 h; settings: 10 µM unless noted
About 83,000 compounds went through this panel and 20% of them were active in at least one assay; those are over-represented in the sample as a whole. Activity calls are given as the source filed them. Rule for the calls: active = growth percent below 10; inactive = the rest.
Choose one outcome from this list and give only that: TRUE for active, FALSE for inactive

O=c1oc2ccccc2cc1C1=NN=C(SCc2ccccc2)SC1    FALSE
COc1ccc(-c2nnc3n(C)c(=O)c4ccccc4n23)cc1N    FALSE
O=C(c1ccccc1)C1C(=O)N2C(=S)N(c3ccccc3)C(=O)C2C1c1ccc(Cl)cc1 (stereo not given)    FALSE
COc1cc(-c2nc3cc(Cl)c(Cl)cc3[nH]2)ccc1OCC(=O)N=Nc1c(O)[nH]c2ccc([N+](=O)[O-])cc12    FALSE
Cc1noc(C)c1C(=O)OCc1coc2ccccc2c1=O    FALSE

Input: Please state the recorded outcome for this compound: "CCSc1nc(NC)c2cc(-c3ccc(C(F)(F)F)cc3)ccc2n1"
Output: FALSE

Input: Please state the recorded outcome for this compound: "C#CCOc1ccc2ncnc(Nc3cccc(NC(=O)C=C)c3)c2c1"
Output: FALSE

Input: Please state the recorded outcome for this compound: "O=S(=O)(NCCNc1cc(-c2c(-c3cccc(O)c3)nc3sccn23)ccn1)c1ccc(C(F)(F)F)cc1"
Output: FALSE

Input: Please state the recorded outcome for this compound: "CCN(CC)CCOc1ccc(-c2c(-c3ccccc3)c(=O)oc3ccccc23)cc1"
Output: FALSE

Input: Please state the recorded outcome for this compound: "OCCOCCN(Cc1ccccn1)Cc1cc(I)cc(I)c1O"
Output: FALSE

Input: Please state the recorded outcome for this compound: COc1ccc(C(c2cc(OC)c(OC)c(OC)c2)N2CCN(c3ccccc3)CC2)cc1 (stereo not given)
Output: FALSE

Input: Please state the recorded outcome for this compound: "CCn1c(SCC(=O)c2ccc(Br)cc2)nnc1-c1ccncc1"
Output: FALSE

Input: Please state the recorded outcome for this compound: "OB(O)c1cccc(-c2nc3ccc4[nH]ncc4c3c3c2CCCC3)c1"
Output: FALSE

Input: Please state the recorded outcome for this compound: "O=Cc1ccc([N+](=O)[O-])s1"
Output: FALSE

Input: Please state the recorded outcome for this compound: "C=C(C)[C@@H]1CC[C@]2(C)[C@H](CC=C3[C@@H]4[C@H](C)[C@@H](C)CC[C@]4(CO)CC[C@]32C)[C@@]1(C)CCCN"
Output: TRUE

Input: Please state the recorded outcome for this compound: "Cn1ccnc1C(=O)C(=O)Nc1ccc(CC(=O)Nc2ccccc2)cc1"
Output: FALSE

Input: Please state the recorded outcome for this compound: COc1cccc(CNc2ncnc3c2ncn3C2OC(CO)C(O)C2O)c1O (stereo not given)
Output: TRUE

Input: Please state the recorded outcome for this compound: CCN1C(=O)N(CC)C2C1NN=c1s/c(=C\c3cccc([N+](=O)[O-])c3)c(=O)n12 (stereo not given)
Output: FALSE

Input: Please state the recorded outcome for this compound: "CC(C)OC(=O)c1ccc2[nH]c(O)c(C(=Nc3ccc(N(C)C(=O)CN4CCN(C)CC4)cc3)c3ccccc3)c2c1"
Output: TRUE

Input: Please state the recorded outcome for this compound: "CC(=O)Cc1nsc(NC(=O)c2cc(-c3cc(Cl)cc(Cl)c3)oc2C)n1"
Output: FALSE

====

tested on: MOLT-4 leukemia; assay: NCI-60 one-dose screen, 48 h; details: 10 µM unless noted
About 83,000 compounds went through this panel and 20% of them were active in at least one assay; those are over-represented in the sample as a whole. Calls of active or inactive are those of the source. The calls were made as follows: active = growth percent below 10; inactive = the rest.
Choose one outcome from this list and give only that: active, inactive

Worked examples, 3 compounds total:
C=CCn1cc(-c2nc3ccccc3s2)c2cc(-c3ccc4c5c(cccc35)C(=O)N(N)C4=O)ccc21    inactive
COc1ccc(-c2nc3c(c(-c4ccccc4)nn3-c3ccccc3)c(-c3ccc(N4CCN(C)CC4)cc3)c2C#N)cc1    inactive
CCC(C)N(c1ccc(Cl)cc1)c1nc(-c2ccc(Br)cc2)cs1 (centres undefined)    inactive

Input: Please state the recorded outcome for this compound: "CCOC(=O)C(=Cc1cccc(Br)c1)C(=O)OCC"
Output: inactive

Input: Please state the recorded outcome for this compound: "O=C(/C=C/c1cn(-c2ccccc2)nc1-c1ccc([N+](=O)[O-])cc1)c1ccc(Cl)cc1"
Output: inactive

====

tested on: SK-OV-3 ovarian; test: NCI-60 one-dose screen, 48 h (100 = growth as untreated, 0 = no growth, -100 = all killed); details: 10 µM unless noted
This is part of a sample that, as a whole, favours compounds with a hit. Of some 83,000 tested, about 20% had one in any assay.
Output schema: class label derived from growth. Mapping: category 1 = under 20%, category 2 = from 20% up to 70%, category 3 = 70% and over

Worked examples, 8 molecules total:
COc1ccc(C(=O)C2C(c3ccc(OC)cc3)CN(C)C23C(=O)Nc2ccccc23)cc1 (stereo not given)    category 3
CCOC(=O)C1=C(NC)OCC1=O    category 3
CS(=O)(=O)Nc1cc(-c2ccc3ncnc(Nc4c(Cl)ccc5c4OCO5)c3c2)cnc1Cl    category 1
CC(C)CCC[C@@H](C)[C@H]1CC[C@H]2[C@@H]3CC=C4C[C@@H](C(C(=O)O)C(=O)O)CC[C@]4(C)[C@H]3CC[C@]12C    category 1
C#Cc1ccc(NC(=O)c2ccc(/C=C/C(=O)c3nccn3C)cc2)cc1    category 1
Clc1ccc(Sc2cnc(-c3ccccc3)o2)cc1    category 3
CN1CCN(c2ccc(C(=O)Nc3cccc(C#Cc4cccc5[nH]nc(N)c45)c3)cc2C(F)(F)F)CC1    category 1
N#Cc1c(-c2ccc(Cl)cc2)nc(SCC(=O)NC2=NN=C(c3ccccc3)CS2)[nH]c1=O    category 2

Input: Which band does "N#Cc1nn(-c2cc(=O)[nH]c3ccc(Cl)cc23)c(N)c1C#N" fall in?
Output: category 3

Input: Which band does "COc1ccc(/C=C2\COc3ccc(O)c(O)c3C2=O)cc1" fall in?
Output: category 2

====

tested on: NCI-H460 lung; assay: NCI-60 one-dose screen, 48 h (100 = growth as untreated, 0 = no growth, -100 = all killed); conditions: 10 µM unless noted
Compounds without any hit were thinned out: in the full panel of roughly 83,000, 20% have a hit.
MEASUREMENT KIND: growth (%)
Number in %, nothing else.

Consider the following illustrative entries.
CN(C)C1CCN(Cc2ccc(NC(=O)c3cncc(C#Cc4cnc(N)c5ncccc45)c3)cc2C(F)(F)F)CC1    0.477
N#Cc1c(N)nnn1Cc1cc(=O)oc2c1ccc1ccccc12    101
CNc1nc(S(=O)c2ccc(C#N)cc2)nc2ccccc12 (stereo not given)    85.2
O=C(c1ccc(Cl)cc1)N1CCN(c2ccnc3cc(Cl)ccc23)CC1    96.2
Cc1cccc(N2CCN(CC(O)COc3ccc(Cl)cc3)CC2)c1 (stereo not given)    112

Then there is this compound:
Input: Look at this compound and give its reported growth. "CCOC(=O)Cn1c(O)c(N=Nc2ccc(S(N)(=O)=O)cc2)c2cc(Br)ccc21"
Output: 44.1
